# SYSTEM_UNDER_TEST: human recombinant 5-HT1A receptor (Homo sapiens (Human))
# Sequence (P08908 whole entry): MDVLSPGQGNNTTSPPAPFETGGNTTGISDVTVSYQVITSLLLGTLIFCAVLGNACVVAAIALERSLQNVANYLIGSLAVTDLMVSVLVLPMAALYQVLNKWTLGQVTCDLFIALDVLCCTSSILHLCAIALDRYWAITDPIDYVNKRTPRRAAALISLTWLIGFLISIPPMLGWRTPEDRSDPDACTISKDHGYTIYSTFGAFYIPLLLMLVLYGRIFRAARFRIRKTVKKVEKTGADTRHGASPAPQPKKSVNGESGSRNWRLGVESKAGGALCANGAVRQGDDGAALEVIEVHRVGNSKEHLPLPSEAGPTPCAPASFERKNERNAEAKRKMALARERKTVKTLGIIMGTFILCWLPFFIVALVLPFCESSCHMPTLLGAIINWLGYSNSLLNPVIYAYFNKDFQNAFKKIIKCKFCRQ
# MEASUREMENT_NOTES: 5-HT1A receptor agonism activity test (inhibition of cAMP production, LANCE cAMP 384 Kit)
# APPLIED_CONDITIONS: HEK293 cells expressing human recombinant 5-HT1A receptor; test concentration 0.1 nM-10000 nM; read-out: 5-HT1A receptor agonism (EC50, mol/L)
pEC50: −log10 of the molar value.
Reported pEC50 by item:

MOLECULE: CC(=O)Nc1nc2c(CCN3CCN(c4cccc5sccc45)CC3)cccc2s1
pEC50: 7.49
--
MOLECULE: O=C1Cc2cc(CCCCN3CCN(c4cccc5sccc45)CC3)ccc2N1
pEC50: 7.46
--
MOLECULE: O=C1CCc2ccc(CCN3CCN(c4cccc5sccc45)CC3)cc2N1
pEC50: 9.03
--
MOLECULE: O=C1COc2c(F)cc(CCN3CCN(c4cccc5sccc45)CC3)cc2N1
pEC50: 9.12
--
MOLECULE: O=c1ccc2ccc(CCN3CCN(c4cccc5c4CCS5)CC3)cc2[nH]1
pEC50: 9.08
--
MOLECULE: O=C1N[C@@H]2[C@@H](CS[C@@H]2CCCCCN2CCN(c3cccc4sccc34)CC2)N1
pEC50: 9.12
--
MOLECULE: Cl.O=S1(=O)NCCc2ccc(CCN3CCN(c4cccc5sccc45)CC3)cc21 [Compound of example 81, hydrochloride]
pEC50: 8.98

* * *

# SYSTEM_UNDER_TEST: human recombinant D2 receptor (Homo sapiens (Human))
# MEASUREMENT_NOTES: D2 receptor antagonism activity test (inhibition of dopamine-induced decrease of cAMP production, LANCE cAMP 384 Kit)
# APPLIED_CONDITIONS: read-out: D2 receptor antagonism (IC50, mol/L), HEK293 cells expressing human recombinant D2 receptor, 0.1 nM-10000 nM
Reported IC50 by item:
PROPERTY_MEASURED: IC50 (nM)

SMILES_RECORD: O=C1N[C@@H]2[C@@H](CS[C@@H]2CCCCCN2CCN(c3cccc4sccc34)CC2)N1
PROPERTY_MEASURED: IC50
EXPERIMENTAL_VALUE: 37.9

SMILES_RECORD: O=C1CCc2ccc(CCN3CCN(c4cccc5sccc45)CC3)cc2N1
PROPERTY_MEASURED: IC50
EXPERIMENTAL_VALUE: 8.62

SMILES_RECORD: O=C1COc2ccc(CCN3CCN(c4cc(F)cc5sccc45)CC3)cc2N1
PROPERTY_MEASURED: IC50
EXPERIMENTAL_VALUE: 45.6

SMILES_RECORD: O=C1COc2c(F)cc(CCCCN3CCN(c4cccc5sccc45)CC3)cc2N1
PROPERTY_MEASURED: IC50
EXPERIMENTAL_VALUE: 13.2

* * *

# SYSTEM_UNDER_TEST: human recombinant D2 receptor (Homo sapiens (Human), UniProt P14416)
# Sequence (P14416 whole entry): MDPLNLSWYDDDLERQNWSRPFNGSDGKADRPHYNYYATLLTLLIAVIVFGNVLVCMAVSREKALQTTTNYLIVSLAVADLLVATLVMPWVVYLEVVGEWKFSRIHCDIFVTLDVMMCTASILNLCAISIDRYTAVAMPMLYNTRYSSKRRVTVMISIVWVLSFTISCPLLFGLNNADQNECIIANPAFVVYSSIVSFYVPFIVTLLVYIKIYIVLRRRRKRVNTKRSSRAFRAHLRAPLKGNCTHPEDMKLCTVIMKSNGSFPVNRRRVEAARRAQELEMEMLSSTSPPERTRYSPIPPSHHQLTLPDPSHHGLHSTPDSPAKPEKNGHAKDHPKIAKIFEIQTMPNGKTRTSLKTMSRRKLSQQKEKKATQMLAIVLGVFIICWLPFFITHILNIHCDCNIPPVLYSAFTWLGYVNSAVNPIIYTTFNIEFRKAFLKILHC
# MEASUREMENT_NOTES: D2 receptor antagonism activity test (inhibition of dopamine-induced decrease of cAMP production, LANCE cAMP 384 Kit)
# APPLIED_CONDITIONS: read-out: D2 receptor antagonism (IC50, mol/L), HEK293 cells expressing human recombinant D2 receptor, 0.1 nM-10000 nM
Rule for this label: condition met means IC50 is less than 10 nM; condition not met means IC50 is at least 10 nM.

COMPOUND: O=C1Cc2cc(CCN3CCN(c4cccc5c4CCS5)CC3)c(Cl)cc2N1 [Compound of example 1]
DISCRETE_LABEL: condition not met

COMPOUND: N#Cc1ccc2[nH]cc(CCCCN3CCN(c4cccc5sccc45)CC3)c2c1 [Compound of example 70]
DISCRETE_LABEL: condition not met

COMPOUND: CN1C(=O)COc2ccc(CCN3CCN(c4cccc5sccc45)CC3)cc21 [Compound of example 114]
DISCRETE_LABEL: condition not met

COMPOUND: Cn1c(=O)[nH]c2cc(CCN3CCN(c4cccc5sccc45)CC3)ccc21 [Compound of example 88]
DISCRETE_LABEL: condition not met

COMPOUND: O=C1Cc2cc(CCCCN3CCN(c4cccc5sc(F)cc45)CC3)ccc2N1 [Compound of example 101]
DISCRETE_LABEL: condition met

COMPOUND: Cc1nc2ccc(CCN3CCN(c4cccc5sccc45)CC3)cc2c(=O)[nH]1 [Compound of example 80]
DISCRETE_LABEL: condition not met

COMPOUND: O=C1Cc2cc(CCN3CCN(c4cccc5sc(F)cc45)CC3)c(Cl)cc2N1 [Compound of example 113]
DISCRETE_LABEL: condition not met

COMPOUND: O=c1[nH]c2ccc(CCN3CCN(c4cccc5sc(F)cc45)CC3)cc2[nH]1 [Compound of example 77]
DISCRETE_LABEL: condition met

COMPOUND: Cl.S=C1CCc2ccc(CCN3CCN(c4cccc5sccc45)CC3)cc2N1 [Compound of example 133, hydrochloride]
DISCRETE_LABEL: condition not met

COMPOUND: Cl.O=S1(=O)NCCc2ccc(CCN3CCN(c4cccc5sccc45)CC3)cc21 [Compound of example 81, hydrochloride]
DISCRETE_LABEL: condition not met

COMPOUND: O=C1CCc2ccc(CCN3CCN(c4cc(F)cc5sccc45)CC3)cc2N1 [Compound of example 85]
DISCRETE_LABEL: condition met

COMPOUND: Cl.O=C1CCc2ccc(CCN3CCN(c4cccc5sc(F)cc45)CC3)cc2N1 [Compound of example 64]
DISCRETE_LABEL: condition met

COMPOUND: Cl.O=C1COc2ccc(CCN3CCN(c4cccc5sccc45)CC3)cc2N1 [Compound of example 30, hydrochloride]
DISCRETE_LABEL: condition not met

COMPOUND: COc1ccc2[nH]cc(CCCCN3CCN(c4cccc5sccc45)CC3)c2c1 [Compound of example 107]
DISCRETE_LABEL: condition met

COMPOUND: Cn1c(=O)[nH]c2ccc(CCN3CCN(c4cccc5sccc45)CC3)cc21 [Compound of example 86]
DISCRETE_LABEL: condition not met

COMPOUND: CC(=O)Nc1nc2ccc(CCN3CCN(c4cccc5sccc45)CC3)cc2s1 [Compound of example 153]
DISCRETE_LABEL: condition met
